assay_protocol: gradient 5% acetonitrile 3 min, to 50% in 2 min, to 85% in 15 min, held 3 min, 100 µL/min
reported_conditions: column: Zorbax Extend-C18 2.1 x 50 mm; eluents: water / acetonitrile, 0.1% formic acid
quantity_name: RP-LC retention time

>>> recorded_result("CCn1c(C(=O)NCCCN2CCCCC2C)c(N2CCCC2=O)c2cc(F)ccc21 (stereo unspecified)")
"654 s"
>>> recorded_result("CNC(=O)[C@@H]1C[C@H](Oc2ccccc2)CN1C(=O)C1CC=CC1")
"710 s"
>>> recorded_result("CCNc1ncnc2sc3c(c12)CCN(C(=O)CCOC)C3")
"610 s"
>>> recorded_result("CCCNC(=O)C1CCN(c2ccc(SCC(=O)NCc3ccc(OC)cc3)nn2)CC1")
"621 s"

Q: Given the entry `O=C(COc1ccc(Cl)cc1)Nc1nc(-c2ccccc2)cs1` , report its measured RP-LC retention time.
Result: 1100 s

Q: Would you mind doing `CCOc1ccc(C(=O)N2CCC3(CC2)NC(=O)c2ccc(Cl)cc2N3)cc1` as well?
Result: 768 s

Q: Would you mind doing `CCn1ncc(NC(=O)COc2cccc(C)c2C)c(N2CCCCC2)c1=O` as well?
Result: 1230 s

Q: Would you mind doing OC(COCc1ccc(Cl)cc1)CN1CCCCC1 (stereo unspecified) as well?
Result: 580 s

Q: Would you mind doing `CCN(CC)S(=O)(=O)c1cc(-c2nnc(C)o2)co1` as well?
Result: 737 s

Q: Would you mind doing `O=C(O)c1cncc(Br)c1` as well?
Result: 701 s

Q: Would you mind doing `O=S(=O)(c1ccc(-c2nnc(C3CCCC3)o2)o1)N1CCCCC1` as well?
Result: 1010 s

Q: Would you mind doing Cc1ccc2cc(CN3CCC4(CC3)CC(C)(O)CCO4)c(=O)[nH]c2c1 (stereo unspecified) as well?
Result: 603 s
